target.system: BRM (Homo sapiens)
Construct: made in house; host or cells: High Five insect cells
Sequence (P51531 whole entry): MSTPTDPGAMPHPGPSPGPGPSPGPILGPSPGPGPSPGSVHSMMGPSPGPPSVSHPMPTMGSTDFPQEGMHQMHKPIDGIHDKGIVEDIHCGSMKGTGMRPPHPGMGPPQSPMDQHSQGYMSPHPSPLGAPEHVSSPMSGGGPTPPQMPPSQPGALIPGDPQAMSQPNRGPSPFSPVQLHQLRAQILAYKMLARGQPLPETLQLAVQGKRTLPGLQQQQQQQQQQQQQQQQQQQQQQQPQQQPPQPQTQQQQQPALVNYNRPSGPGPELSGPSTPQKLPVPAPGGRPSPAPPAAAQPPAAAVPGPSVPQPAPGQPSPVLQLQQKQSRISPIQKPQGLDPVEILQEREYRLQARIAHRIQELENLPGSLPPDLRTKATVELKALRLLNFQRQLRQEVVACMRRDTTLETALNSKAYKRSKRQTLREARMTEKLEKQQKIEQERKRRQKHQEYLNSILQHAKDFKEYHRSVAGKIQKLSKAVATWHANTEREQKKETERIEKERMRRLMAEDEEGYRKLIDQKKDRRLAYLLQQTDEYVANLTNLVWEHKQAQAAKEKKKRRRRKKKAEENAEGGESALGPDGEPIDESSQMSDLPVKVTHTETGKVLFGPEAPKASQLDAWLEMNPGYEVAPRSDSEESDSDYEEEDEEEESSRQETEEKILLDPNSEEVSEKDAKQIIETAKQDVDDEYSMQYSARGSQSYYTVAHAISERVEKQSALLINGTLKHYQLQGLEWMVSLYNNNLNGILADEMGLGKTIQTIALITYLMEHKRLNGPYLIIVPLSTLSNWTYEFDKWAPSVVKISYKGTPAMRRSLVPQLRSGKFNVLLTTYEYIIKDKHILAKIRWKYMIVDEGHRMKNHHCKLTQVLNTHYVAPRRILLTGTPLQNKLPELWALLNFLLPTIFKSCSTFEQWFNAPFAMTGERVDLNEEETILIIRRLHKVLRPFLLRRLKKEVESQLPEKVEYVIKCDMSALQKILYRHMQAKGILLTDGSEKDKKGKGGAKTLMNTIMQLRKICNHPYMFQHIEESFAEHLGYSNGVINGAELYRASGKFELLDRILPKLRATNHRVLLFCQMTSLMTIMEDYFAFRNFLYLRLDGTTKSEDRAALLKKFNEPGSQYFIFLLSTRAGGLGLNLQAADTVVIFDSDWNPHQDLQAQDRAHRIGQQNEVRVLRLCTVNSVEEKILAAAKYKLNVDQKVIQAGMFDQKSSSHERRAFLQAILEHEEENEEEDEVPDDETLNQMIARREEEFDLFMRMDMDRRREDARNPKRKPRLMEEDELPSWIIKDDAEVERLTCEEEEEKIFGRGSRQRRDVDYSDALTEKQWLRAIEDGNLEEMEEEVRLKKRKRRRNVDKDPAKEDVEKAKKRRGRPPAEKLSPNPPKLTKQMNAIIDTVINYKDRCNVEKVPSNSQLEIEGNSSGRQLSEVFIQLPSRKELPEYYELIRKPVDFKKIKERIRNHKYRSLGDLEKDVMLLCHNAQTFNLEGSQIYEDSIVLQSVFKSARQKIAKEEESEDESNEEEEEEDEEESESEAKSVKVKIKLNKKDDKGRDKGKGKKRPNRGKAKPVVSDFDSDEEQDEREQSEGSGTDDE
test.method.notes: ATPase catalytic activity of BRM, ADP-Glo in vitro biochemical assay
test.settings: ATPase catalytic activity, 30 nM BRM, 400 μM ATP, read-out: BRM IP50 (μM)*
Collected IC50 values appear next to each entry.

Req: Quick check: IC50 of "CC(C)(C)n1ccc(C(=O)NCC(=O)Nc2nc(-c3cccc(-c4ccncc4)c3)cs2)c1" ?
Resp: < 0.01 µM

Req: Quick check: IC50 of "COC[C@H](NC(=O)c1ccn(S(C)(=O)=O)c1)C(=O)Nc1nc(-c2cccc(C3=CC(C)(C)OC(C)(C)C3)c2)cs1" ?
Resp: > 0.01 µM

Req: Quick check: IC50 of "COC[C@H](NC(=O)c1ccn(S(C)(=O)=O)c1)C(=O)Nc1nc(-c2cccc(N3C[C@@H](C)O[C@@H](C)C3)c2F)cs1" ?
Resp: > 0.01 µM

Req: Quick check: IC50 of "CN(C)CC[C@H](NC(=O)c1ccn(S(C)(=O)=O)c1)C(=O)Nc1nc(-c2cccc(-c3ccncc3)c2)cs1" ?
Resp: > 0.01 µM
